B1: library; a variant is named by its letters at N, in order (parent)
chain: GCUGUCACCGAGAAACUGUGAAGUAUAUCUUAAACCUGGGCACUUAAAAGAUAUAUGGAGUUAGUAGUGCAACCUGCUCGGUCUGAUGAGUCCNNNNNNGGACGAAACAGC

Variants of: B1
assay method text: normalized RNA/DNA level without ligand (relative to sTRSVctl = 100) (log10 (% of sTRSVctl)); HEK293T; ligand: cyclic di-GMP (c-di-GMP-II aptamer); higher = less ribozyme self-cleavage, higher mRNA level
experimental parameters: reporter: mCherry (pCS4076), ligand present: no
measure: normalized RNA/DNA level without ligand (log10)
Answers are plain numbers.

Below, 2 variants whose answers are already recorded.
variant annotation: UAUAUA
val: 1.68
//
variant annotation: CUGCAU
val: 1.62

Each variant below has a reported value. Please supply its normalized RNA/DNA level without ligand (log10).
1. UAAUAG
2. AUCCAG
3. UCUAAC
4. GACCUA
5. UCGAAC
6. ACUUCC
7. GCAUUA
8. ACCUCC

Reply:
1.67
1.72
1.69
1.62
1.62
1.78
1.47
1.78

Task item: // query normalized RNA/DNA level without ligand (log10) value for entry GCUUUG
Reply: 1.66

meta.source: the supplement of paper PMC6757056
